target: haematopoietic prostaglandin D synthase (H-PGDS) (Homo sapiens); construct: Full length human H-PGDS cDNA (Invitrogen Ultimate ORF IOH13026) was amplified by PCR; 6-His (N); TEV protease cleavage site (N); made in house; host or cells: E. coli BL21 (DE3*); assay: H-PGDS RapidFire high throughput mass spectrometry assay (conversion of PGH2 to PGD2); assay type: biochemical; settings: 10 nM H-PGDS, PGH2 formed in situ by COX-2 from arachidonic acid; four parameter curve fit; read-out: Potency Range (mean pIC50) (converted)
Sequence (O60760 whole entry): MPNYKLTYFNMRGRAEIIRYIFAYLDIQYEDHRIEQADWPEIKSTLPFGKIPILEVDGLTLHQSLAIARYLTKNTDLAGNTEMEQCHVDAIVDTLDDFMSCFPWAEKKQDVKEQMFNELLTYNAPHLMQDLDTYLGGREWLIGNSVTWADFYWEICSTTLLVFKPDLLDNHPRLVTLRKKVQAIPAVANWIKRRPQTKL
reported-property: IC50

{"compound": "CC(C)(O)[C@H]1CC[C@H](NC(=O)c2cnc3nc(C4CCC4)ccc3c2)CC1", "obs-value": "10 to 79.4 nM"}
{"compound": "O=C(N[C@H]1CCNC1=O)c1cnc2nc(C3CC3)ccc2c1", "obs-value": "10 to 79.4 nM"}
{"compound": "COc1nc2ncc(C(=O)N[C@H]3CC[C@H](C(C)(C)O)CC3)cc2cc1Cl", "obs-value": "< 10 nM"}
{"compound": "C[C@@H]1CNC(=O)[C@H]1NC(=O)c1cnc2cc(N3CC[C@@H]3C)ncc2c1", "obs-value": "10 to 79.4 nM"}
{"compound": "C[C@H]1CCN1c1cc2ncc(C(=O)N[C@H]3C[C@H](C(C)(C)O)C3)cc2cn1", "obs-value": "10 to 79.4 nM"}

Could you report IC50 for every entry in the following list?
1. O=C(N[C@H]1C[C@](O)(C(F)(F)F)C1)c1cnc2nc(C3CC3)c(Cl)cc2c1
2. C[C@H]1CCN1c1nc2ncc(C(=O)N[C@H]3CC[C@](C)(O)CC3)cc2cc1Cl
3. C[C@H]1CCN1c1nc2ncc(C(=O)N[C@H]3CCNC3=O)cc2cc1Cl
4. CC1CCN1c1ccc2cc(C(=O)N[C@H]3CC[C@H](C(C)(C)O)CC3)cnc2n1 (mixture of isomers)
5. CC(C)(O)C1CC2(CC(NC(=O)c3cnc4nc(C5CC5)ccc4c3)C2)C1 (racemic)

1: < 10 nM; 2: < 10 nM; 3: < 10 nM; 4: 10 to 79.4 nM; 5: 10 to 79.4 nM

Could you report IC50 for every entry in the following list?
1. C[C@]1(O)C[C@@H](NC(=O)c2cnc3cc(C4CC4)ncc3c2)C1
2. C[C@H]1CCN1c1nc2ncc(C(=O)NC3CC4(C3)CC(C(C)(C)O)C4)cc2cc1Cl (some centres unmarked)
3. CSc1ncc2cc(C(=O)N[C@H]3CC[C@H](C(C)(C)O)CC3)cnc2n1

100 to 1000 nM
< 10 nM
< 10 nM
